Test system: Streptococcus pyogenes
Assay: Antibacterial activity against Streptococcus pyogenes PSCB-0545
Assay type: functional
Property: MIC (µg/mL)

CC[C@H]1OC(=O)C[C@@H](O)[C@H](C)[C@@H](OC2OC(C)C(O)C(N(C)C)C2O)[C@@H](C/C=C/C(C)=O)C[C@@H](C)C(=O)/C=C/C(C)=C/[C@@H]1COC1OC(C)C(O)C(OC)C1OC (some centres undefined) ... 0.5

a = CC[C@H]1OC(=O)C[C@@H](O)[C@H](C)[C@@H](O[C@@H]2O[C@H](C)[C@@H](O)[C@@H](N(C)C)[C@H]2O)[C@@H](CC=O)C[C@@H](C)C(=O)/C=C/C(C)=C/[C@@H]1CO[C@@H]1O[C@H](C)[C@@H](O)[C@@H](OC)[C@H]1OC
b = CC[C@H]1OC(=O)C[C@@H](O)[C@H](C)[C@@H](OC2OC(C)C(O)C(N(C)C)C2O)[C@@H](CC=O)C[C@@H](C)C(=O)CCC(C)C[C@@H]1COC1OC(C)C(O)C(OC)C1OC (some centres undefined)
c = CCOC(=O)/C=C/C[C@H]1C[C@@H](C)C(=O)/C=C/C(C)=C/[C@H](COC2OC(C)C(O)C(OC)C2OC)[C@@H](CC)OC(=O)C[C@@H](NN(C(=O)OCC)C(=O)OCC)[C@H](C)[C@H]1OC1OC(C)C(O)C(N(C)C)C1O (some centres undefined)
Rank the items in ascending order with respect to MIC. Give me the labels in the order the question wants.
a, b, c
(a: 0.5 µg/mL, b: 1 µg/mL, c: 16 µg/mL)

The values you see were collected from ChEMBL document CHEMBL1148383.
